target: GLP-1R (Homo sapiens, UniProt P43220); test: GLP-1R activation: cAMP increase in CHO cells stably expressing GLP-1R; type: cell-based; details: cAMP increase, CHO cells stably expressing GLP-1R, 10 point dose response, 30 minutes incubation; read-out: EC50
Sequence (P43220 24-463): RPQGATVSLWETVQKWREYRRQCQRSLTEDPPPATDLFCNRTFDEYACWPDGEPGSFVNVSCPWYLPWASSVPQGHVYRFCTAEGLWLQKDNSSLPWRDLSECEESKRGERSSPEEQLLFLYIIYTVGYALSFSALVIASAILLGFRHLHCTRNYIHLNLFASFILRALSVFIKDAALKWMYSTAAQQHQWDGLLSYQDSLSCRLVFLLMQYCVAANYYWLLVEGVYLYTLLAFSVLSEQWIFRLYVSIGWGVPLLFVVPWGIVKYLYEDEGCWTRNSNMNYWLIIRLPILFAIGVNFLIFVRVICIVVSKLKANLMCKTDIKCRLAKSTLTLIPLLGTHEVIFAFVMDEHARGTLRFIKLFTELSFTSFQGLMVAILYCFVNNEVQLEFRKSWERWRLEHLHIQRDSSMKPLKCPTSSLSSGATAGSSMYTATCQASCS
Measured EC50 values are reported for all entries that follow.
Result type: EC50 (nM)

In [3]: df
Out[3]:
                                   compound  result_type  endpoint_unit  reported_value
0  N#Cc1ccc(COc2cccc(-c3ccc(Cc4nc5cc(F)c(C(=O)O)cc5n4CC4(CF)CC4)c(F)c3)n2)c(F)c1 [Example 221]         EC50             nM            5.28
1  COCCn1c(Cc2cc(F)c(-c3cccc(OCc4ccc(F)cc4F)n3)cc2F)nc2ccc(C(=O)O)cc21 [Example 815]         EC50             nM            2.49
2  CC(=O)N1C[C@H](O)C[C@@H]1Cn1c(Cc2cc(F)c(-c3cccc(OCc4ccc(C#N)cc4F)n3)cc2F)nc2ccc(C(=O)O)cc21 [Example 848]         EC50             nM            4.08
3  N#Cc1ccc(COc2nc(-c3cc(F)c(Cc4nc5c(F)cc(C(=O)O)cc5n4C[C@@H]4CCO4)cc3F)ccc2F)cn1 [Example 779]         EC50             nM            0.17
4  COCCn1c(Cc2ncc(-c3cccc(OCc4ccc(C#N)cc4F)n3)cn2)nc2ccc(C(=O)O)cc21 [Example 58]         EC50             nM            28.8
5  COCCn1c(Cc2ccc(-c3nc(OCc4ccc(C#N)cc4F)ncc3F)cc2F)nc2ccc(C(=O)O)cc21 [Example 358]         EC50             nM            33.1
6  COCCn1c(Cc2cc(F)c(-c3nc(OCc4ccc(C#N)cc4F)ccc3F)cc2F)nc2c(F)cc(C(=O)O)cc21 [Example 791]         EC50             nM            2.75
